Tested on: PGE2 levels in exudate (carrageenan-challenged air pouch)
Experiment: Air pouch assay of acute inflammation measuring exudate volume and PGE2 levels in exudate in rats
Type: in vivo, Sprague-Dawley rats
Details: rat air pouch; 0.01 mmol/kg oral 2 h before 1% carrageenan; exudate 4 h after carrageenan; ELISA; group mean, 5 rats/group
Hi there, I'd appreciate the recorded PGE2 (pg/mL), mean in exudate for every entry that follows.
Numbers only, in pg/mL.

In the examples that follow, each entry is paired with its recorded PGE2 (pg/mL), mean in exudate.
molecule	unit label	PGE2 (pg/mL), mean in exudate
CN(CCO)/[N+]([O-])=N/OCOC(=O)C(C)(C)C	pg/mL	3782.4
Cc1ccc(-c2cc(C(F)(F)F)nn2-c2ccc(S(N)(=O)=O)cc2)cc1 [Celecoxib, reference compound]	pg/mL	907.1
Cc1ccc(-c2cc(C(F)(F)F)nn2-c2ccc(S(=O)(=O)NC(=O)OCCN(C)/[N+]([O-])=N/OCOC(=O)C(C)(C)C)cc2)cc1	pg/mL	4959.1

Now let's try a different one.
Query string: I am curious: what PGE2 (pg/mL), mean in exudate value has been reported for "Cc1ccc(-c2cc(C(F)(F)F)nn2-c2ccc(S(=O)(=O)NC(=O)CN(C)/[N+]([O-])=N/OCOC(=O)C(C)(C)C)cc2)cc1" ?
Result string: 1915.2

Cited source: patent US8859781B2
